The entries below come with measured Kd values attached.
# measurement-target: T1, cynomolgus TREM-1-Fc (cynomolgus monkey)
# T1 construct: also called cTREM-1
# T1 chain: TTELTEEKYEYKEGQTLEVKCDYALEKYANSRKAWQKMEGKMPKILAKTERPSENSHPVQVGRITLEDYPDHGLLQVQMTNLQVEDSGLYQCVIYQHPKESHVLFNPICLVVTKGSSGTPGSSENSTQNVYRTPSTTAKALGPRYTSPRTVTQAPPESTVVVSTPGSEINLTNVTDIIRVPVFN
# test-description: SPR (ProteOn), antibody captured via anti-Fc, TREM-1-Fc as analyte, 1:1 Langmuir fit, 25 C
Return type: number; implicit unit nM.

Examples from the recorded data:
mAb 0324 (mAb 0170 variant, heavy chain A59Y) (antibody, human IgG4 S228P, kappa, V domains shown) VH: EVQLVESGGGLVQPGGSLKLSCAASGFTFSTYAMHWVRQASGKGLEWVGRIRTKSSNYYTYYAASVKGRFTISRDDSKNTAYLQMNSLKTEDTAVYYCTRDMGIRRQFAYWGQGTLVTVSS VL: DIVLTQSPDSLAVSLGERATINCRASESVDTFDYSFLHWYQQKPGQPPKLLIYRASNLESGVPDRFSGSGSGTDFTLTISSLQAEDVAVYYCQQSNEDPYTFGQGTKLEIKR: 4
mAb 0321 (mAb 0170 variant, light chain E27Q) (antibody, human IgG4 S228P, kappa, V domains shown, Charge patch mutation) VH: EVQLVESGGGLVQPGGSLKLSCAASGFTFSTYAMHWVRQASGKGLEWVGRIRTKSSNYATYYAASVKGRFTISRDDSKNTAYLQMNSLKTEDTAVYYCTRDMGIRRQFAYWGQGTLVTVSS VL: DIVLTQSPDSLAVSLGERATINCRASQSVDTFDYSFLHWYQQKPGQPPKLLIYRASNLESGVPDRFSGSGSGTDFTLTISSLQAEDVAVYYCQQSNEDPYTFGQGTKLEIKR: 2
mAb 0319 (mAb 0170 variant, light chain E97S) (antibody, human IgG4 S228P, kappa, V domains shown, Charge patch mutation) VH: EVQLVESGGGLVQPGGSLKLSCAASGFTFSTYAMHWVRQASGKGLEWVGRIRTKSSNYATYYAASVKGRFTISRDDSKNTAYLQMNSLKTEDTAVYYCTRDMGIRRQFAYWGQGTLVTVSS VL: DIVLTQSPDSLAVSLGERATINCRASESVDTFDYSFLHWYQQKPGQPPKLLIYRASNLESGVPDRFSGSGSGTDFTLTISSLQAEDVAVYYCQQSNSDPYTFGQGTKLEIKR: 2
mAb 0323 (mAb 0170 variant, light chain F32S) (antibody, human IgG4 S228P, kappa, V domains shown) VH: EVQLVESGGGLVQPGGSLKLSCAASGFTFSTYAMHWVRQASGKGLEWVGRIRTKSSNYATYYAASVKGRFTISRDDSKNTAYLQMNSLKTEDTAVYYCTRDMGIRRQFAYWGQGTLVTVSS VL: DIVLTQSPDSLAVSLGERATINCRASESVDTSDYSFLHWYQQKPGQPPKLLIYRASNLESGVPDRFSGSGSGTDFTLTISSLQAEDVAVYYCQQSNEDPYTFGQGTKLEIKR: 0.6

Consider now this further binder.
What does the data say about its Kd? Entry: mAb 0320 (mAb 0170 variant, light chain E97Q) (antibody, human IgG4 S228P, kappa, V domains shown, Charge patch mutation) VH: EVQLVESGGGLVQPGGSLKLSCAASGFTFSTYAMHWVRQASGKGLEWVGRIRTKSSNYATYYAASVKGRFTISRDDSKNTAYLQMNSLKTEDTAVYYCTRDMGIRRQFAYWGQGTLVTVSS VL: DIVLTQSPDSLAVSLGERATINCRASESVDTFDYSFLHWYQQKPGQPPKLLIYRASNLESGVPDRFSGSGSGTDFTLTISSLQAEDVAVYYCQQSNQDPYTFGQGTKLEIKR
3
